Recorded pIC50 by entry
- target or system: human TOR (Homo sapiens, UniProt P42345)
- Construct: FLAG
- test name: mTOR enzyme assay (DELFIA, His6-S6K substrate)
- Type: biochemical
- condition label: read-out: mTOR Kinase Avg. IC50
pIC50: −log10 of the molar value.

- record smiles: "O=C1/C(=C/c2c(-c3ccc(Cl)cc3)[nH]c3ccccc23)Oc2cc(O)cc(O)c21"
  pIC50: 6.72
- record smiles: "COc1ccc2c(c1)c(/C=C1\\Oc3cc(O)c(Cl)cc3C1=O)c(C)n2CCCN(C)C"
  pIC50: "< 4.70"
- record smiles: "COc1ccc2c(c1)O/C(=C\\c1c[nH]c3ccc(OC)cc13)C2=O"
  pIC50: "< 4.70"
- record smiles: "CNC(=O)Nc1ccc2c(c1)C(=O)/C(=C/c1c(-c3c(C)n[nH]c3C)[nH]c3c(F)cc(OC)cc13)O2"
  pIC50: "> 9.00"

* * *

Each entry below lists one item and its recorded IC50 value.
- target or system: PI3K-gamma (Homo sapiens)
- Sequence (P48736 whole entry, species assumed): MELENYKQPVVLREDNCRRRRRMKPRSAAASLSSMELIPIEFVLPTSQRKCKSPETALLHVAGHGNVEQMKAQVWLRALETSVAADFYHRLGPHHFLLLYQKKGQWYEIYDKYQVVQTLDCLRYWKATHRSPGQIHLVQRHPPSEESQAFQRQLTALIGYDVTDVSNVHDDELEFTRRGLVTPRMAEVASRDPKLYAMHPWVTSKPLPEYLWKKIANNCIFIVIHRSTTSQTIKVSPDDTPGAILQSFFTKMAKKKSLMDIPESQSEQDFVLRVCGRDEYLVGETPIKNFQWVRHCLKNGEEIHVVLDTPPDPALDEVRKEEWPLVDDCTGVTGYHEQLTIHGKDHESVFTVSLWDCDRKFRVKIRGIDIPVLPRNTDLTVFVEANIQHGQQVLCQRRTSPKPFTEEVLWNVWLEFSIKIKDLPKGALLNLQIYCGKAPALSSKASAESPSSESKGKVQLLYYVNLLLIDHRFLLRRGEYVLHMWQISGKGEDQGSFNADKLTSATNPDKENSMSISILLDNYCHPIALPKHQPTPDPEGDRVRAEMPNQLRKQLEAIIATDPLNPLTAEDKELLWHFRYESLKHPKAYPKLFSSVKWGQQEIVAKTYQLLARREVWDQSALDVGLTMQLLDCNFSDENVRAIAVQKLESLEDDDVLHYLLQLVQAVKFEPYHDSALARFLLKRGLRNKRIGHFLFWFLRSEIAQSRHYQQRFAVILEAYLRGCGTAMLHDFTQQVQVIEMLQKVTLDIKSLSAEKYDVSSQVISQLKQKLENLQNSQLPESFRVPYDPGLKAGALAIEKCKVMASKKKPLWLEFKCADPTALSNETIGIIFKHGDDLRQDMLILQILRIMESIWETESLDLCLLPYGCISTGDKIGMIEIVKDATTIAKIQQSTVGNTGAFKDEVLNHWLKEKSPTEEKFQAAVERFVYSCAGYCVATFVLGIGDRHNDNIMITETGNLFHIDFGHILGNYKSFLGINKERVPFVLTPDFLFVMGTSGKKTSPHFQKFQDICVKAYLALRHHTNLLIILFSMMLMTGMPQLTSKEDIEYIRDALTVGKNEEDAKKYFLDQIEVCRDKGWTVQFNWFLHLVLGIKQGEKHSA
- test name: PI3K-gamma fluorescence polarization assay
- Type: biochemical
- condition label: PI3Kγ Avg. IC50
- Procedure: PI3K-Alpha, PI3K-Beta, PI3K-Gamma, and PI3K-delta Fluorescence Polarization Assay Protocols PI3-Kinase reactions were performed in 5 mM HEPES, pH 7, 2.5 mM MgCl2, and 25 μM ATP, with diC8-PI(4,5)P2 (Echelon, Salt Lake City Utah) as substrate. Nunc 384-well black polypropylene fluorescent plates were used for PI3K assays. […] Assay Plates were read on Perkin-Elmer Envision plate readers with appropriate filters for Tamra [BODIPY-TMRI(1,3,4,5)P4]. […]
property label: IC50 (nM)

- compound: "COc1ccc2[nH]c(-c3c(C)noc3C)c(/C=C3\\Oc4cc(O)cc(O)c4C3=O)c2c1 [Example 360]"
  property label: "IC50"
  measured value: 3.2
- compound: "CNCCNC(=O)Nc1ccc2c(c1)C(=O)/C(=C/c1c(C3CCCCC3)n(CCN3CCN(C)CC3)c3ccc(OC)cc13)O2 [Compound 584]"
  property label: "IC50"
  measured value: 26
- compound: "COc1ccc2[nH]c(-c3c(C)nn(C)c3C)c(/C=C3\\Oc4ccc(NC(=O)Nc5cccnc5)cc4C3=O)c2c1 [Compound 635]"
  property label: "IC50"
  measured value: 2.5
- compound: "CNC(=O)Nc1ccc2c(c1)C(=O)/C(=C/c1c(C)n(CCCN3CCN(C)CC3)c3ccc(OC)cc13)O2 [Compound 586]"
  property label: "IC50"
  measured value: 1010
- compound: "CCn1c(C)c(/C=C2\\Oc3ccc(NC(=O)Nc4ccc(C(=O)NCCCN(C)C)cc4)cc3C2=O)c2cc(OC)ccc21 [Compound 666]"
  property label: "IC50"
  measured value: 4.5
- compound: "CNC(=O)Nc1ccc2c(c1)C(=O)/C(=C/c1c(-c3cnn(CC(C)C)c3)[nH]c3c(F)cc(OC)cc13)O2 [Compound 717]"
  property label: "IC50"
  measured value: 8
- compound: "COc1ccc2[nH]c(-c3c(C)nn(C)c3C)c(/C=C3\\Oc4ccc(NC(=O)Nc5ccc(C(=O)N6CCN(C)CC6)cc5)cc4C3=O)c2c1 [Compound 689]"
  property label: "IC50"
  measured value: 2.5

* * *

- target or system: PI3K-delta (Homo sapiens)
- Sequence (O00329 whole entry, species assumed): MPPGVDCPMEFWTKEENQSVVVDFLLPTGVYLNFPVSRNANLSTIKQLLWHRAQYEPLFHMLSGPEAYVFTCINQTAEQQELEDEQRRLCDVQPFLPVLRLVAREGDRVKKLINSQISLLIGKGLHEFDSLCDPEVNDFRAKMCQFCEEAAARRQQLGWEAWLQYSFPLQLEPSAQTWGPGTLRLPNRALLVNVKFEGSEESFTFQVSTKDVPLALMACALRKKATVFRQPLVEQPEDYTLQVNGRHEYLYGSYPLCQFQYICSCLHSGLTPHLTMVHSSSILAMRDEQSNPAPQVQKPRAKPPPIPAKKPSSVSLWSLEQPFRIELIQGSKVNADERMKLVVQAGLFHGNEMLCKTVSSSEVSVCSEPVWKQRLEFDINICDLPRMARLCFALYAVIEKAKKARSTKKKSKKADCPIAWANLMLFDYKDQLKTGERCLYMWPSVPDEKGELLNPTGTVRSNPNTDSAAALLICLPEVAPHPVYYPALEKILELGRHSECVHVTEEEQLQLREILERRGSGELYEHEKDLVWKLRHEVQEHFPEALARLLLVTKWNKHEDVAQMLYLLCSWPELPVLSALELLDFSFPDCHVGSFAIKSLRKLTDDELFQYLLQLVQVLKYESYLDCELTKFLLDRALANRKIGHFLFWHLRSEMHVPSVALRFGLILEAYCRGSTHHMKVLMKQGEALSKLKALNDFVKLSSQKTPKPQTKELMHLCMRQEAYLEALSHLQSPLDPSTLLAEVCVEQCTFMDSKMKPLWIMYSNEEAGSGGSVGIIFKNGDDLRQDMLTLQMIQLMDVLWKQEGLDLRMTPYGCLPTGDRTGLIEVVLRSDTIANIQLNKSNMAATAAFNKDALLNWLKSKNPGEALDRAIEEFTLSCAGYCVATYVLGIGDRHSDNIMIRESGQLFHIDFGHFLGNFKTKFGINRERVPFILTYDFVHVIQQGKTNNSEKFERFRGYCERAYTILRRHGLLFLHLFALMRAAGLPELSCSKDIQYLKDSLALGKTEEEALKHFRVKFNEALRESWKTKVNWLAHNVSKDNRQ
- Sequence (P27986 whole entry partner, species assumed): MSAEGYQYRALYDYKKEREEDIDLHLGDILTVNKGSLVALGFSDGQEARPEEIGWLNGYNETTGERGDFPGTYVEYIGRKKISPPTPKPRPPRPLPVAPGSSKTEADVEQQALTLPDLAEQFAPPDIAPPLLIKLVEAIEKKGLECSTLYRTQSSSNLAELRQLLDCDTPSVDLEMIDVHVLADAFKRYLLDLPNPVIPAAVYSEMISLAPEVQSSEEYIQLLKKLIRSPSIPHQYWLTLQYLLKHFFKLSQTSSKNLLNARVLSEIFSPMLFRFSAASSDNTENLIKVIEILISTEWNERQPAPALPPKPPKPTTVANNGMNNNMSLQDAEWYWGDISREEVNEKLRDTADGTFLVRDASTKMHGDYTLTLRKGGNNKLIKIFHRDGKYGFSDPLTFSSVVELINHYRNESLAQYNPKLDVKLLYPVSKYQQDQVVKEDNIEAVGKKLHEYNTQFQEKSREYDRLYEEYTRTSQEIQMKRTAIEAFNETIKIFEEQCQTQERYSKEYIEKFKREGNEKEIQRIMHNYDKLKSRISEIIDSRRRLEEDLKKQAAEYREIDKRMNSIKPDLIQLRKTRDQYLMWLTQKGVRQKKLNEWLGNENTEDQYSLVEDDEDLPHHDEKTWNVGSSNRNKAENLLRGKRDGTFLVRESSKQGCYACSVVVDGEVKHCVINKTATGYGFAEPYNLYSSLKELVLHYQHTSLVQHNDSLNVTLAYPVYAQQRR
- test name: PI3K-delta fluorescence polarization assay
- Type: biochemical
- condition label: read-out: PI3Kδ Avg. IC50
pIC50: −log10 of the molar value.

- molecule: "COc1ccc2[nH]c(-c3ccccc3)c(/C=C3\\Oc4cc(O)ccc4C3=O)c2c1 [Example 310]"
  pIC50: 9.05
- molecule: "COc1ccc2c(c1)c(C=C1Oc3cc(O)cc(O)c3C1=O)c(C)n2C [Example 89]"
  pIC50: 8.10
- molecule: "COc1ccc2c(c1)c(/C=C1\\Oc3cc(O)cc(O)c3C1=O)c(C(F)(F)F)n2CCN1CCN(C)CC1 [Example 336]"
  pIC50: 9.00
- molecule: "COc1ccc2c(c1)c(/C=C1\\Oc3cc(O)cc(O)c3C1=O)c(-c1cnn(C)c1)n2CCN1CCN(C)CC1 [Example 341]"
  pIC50: 9.10
- molecule: "COc1ccc2c(c1)c(C=C1Oc3cc(O)cc(O)c3C1=O)cn2CCCCN(C)C [Example 116]"
  pIC50: 8.30
- molecule: "COc1ccc2c(c1)c(C=C1Oc3cc(O)cc(O)c3C1=O)c(C)n2CCCCN1CCN(C)CC1 [Example 96]"
  pIC50: 8.70

* * *

Listed compounds paired with reported pIC50
- target or system: UniProtKB P48736
- test name: PI3K-gamma fluorescence polarization assay
- Assay type: biochemical
- condition label: PI3Kγ Avg. IC50
pIC50: −log10 of the molar value.

- compound: "CNC(=O)c1ccc2c(c1)C(=O)/C(=C/c1cn(CCCN(C)C)c3ccc(OC)cc13)O2"
  relation qualifier: "<"
  pIC50: 5.00
- compound: "COc1ccc(Br)c2c1C(=O)/C(=C/c1cn(C)c3cccc(-c4ccccc4)c13)O2"
  relation qualifier: "<"
  pIC50: 5.00
- compound: "COc1ccc2[nH]c(-c3ccccc3)c(CC3Oc4cc(O)cc(O)c4C3=O)c2c1 (centres unmarked)"
  relation qualifier: "="
  pIC50: 6.03
- compound: "CNc1ccc(-c2cccc3c2c(/C=C2\\Oc4cc(O)cc(O)c4C2=O)cn3C)cc1"
  relation qualifier: "="
  pIC50: 5.01
- compound: "COc1cccc2c1c(/C=C1\\Oc3cc(O)cc(O)c3C1=O)c(-c1ccccc1)n2C"
  relation qualifier: "="
  pIC50: 5.92
- compound: "CNC(=O)Nc1ccc2c(c1)C(=O)/C(=C/c1c(C(=O)N3CCN(C)CC3)[nH]c3ccc(OC)cc13)O2"
  relation qualifier: "="
  pIC50: 7.11
- compound: "O=C1C(=Cc2c[nH]c3cccc(Cl)c23)Oc2cc(O)cc(O)c21"
  relation qualifier: "<"
  pIC50: 5.00
- compound: "COc1ccc2[nH]cc(/C=C3\\Oc4cc(O)cc(CO)c4C3=O)c2c1"
  relation qualifier: "="
  pIC50: 6.15
- compound: "CNC(=O)Nc1ccc2c(c1)C(=O)/C(=C/c1c[nH]c3c(CN4CCOCC4)cc(OC)cc13)O2"
  relation qualifier: "="
  pIC50: 5.19
- compound: "O=C1C(=Cc2c[nH]c3c(Cl)cccc23)Oc2cc(O)cc(O)c21"
  relation qualifier: "<"
  pIC50: 5.00
- compound: "COc1ccc(-c2cccc3c2c(/C=C2\\Oc4cc(O)cc(O)c4C2=O)cn3C)cc1"
  relation qualifier: "="
  pIC50: 5.42

* * *

- target or system: human TOR (Homo sapiens, UniProt P42345)
- Construct: FLAG
- test name: mTOR enzyme assay (DELFIA, His6-S6K substrate)
- Type: biochemical
- condition label: read-out: mTOR Kinase Avg. IC50
property label: log10(IC50) (log10 of the value in nM)

- compound: "Cn1c(-c2ccc(O)cc2)c(C=C2Oc3cc(O)cc(O)c3C2=O)c2ccccc21 [Example 193]"
  measured value: 1.93
- compound: "CCn1c(C)c(/C=C2\\Oc3ccc(NC(=O)Nc4ccc(OCCCCN(C)C)cc4)cc3C2=O)c2cc(OC)ccc21 [Compound 668]"
  measured value: 2.47
- compound: "Cn1cc(/C=C2\\Oc3cc(O)cc(O)c3C2=O)c2c(-c3ccc([N+](=O)[O-])cc3)cccc21 [Example 420]"
  measured value: 1.50
- compound: "COc1ccc2c(c1)c(/C=C1\\Oc3ccc(NC(=O)Nc4ccc(C(=O)N(C)CCN(C)C)cc4)cc3C1=O)c(C)n2CCN1CCN(C)CC1 [Compound 649]"
  measured value: 1.49
- compound: "CNC(=O)Nc1ccc2c(c1)C(=O)/C(=C/c1c(-c3c(C)nn(C)c3C)n(CCCC#N)c3ccc(OC)cc13)O2 [Compound 634]"
  measured value: 1.28
- compound: "Cn1cc(/C=C2\\Oc3cc(O)cc(O)c3C2=O)c2c(-c3ccccc3F)cccc21 [Example 366]"
  measured value: 1.88
- compound: "COc1ccc2c(c1)c(/C=C1\\Oc3ccc(NC(=O)Nc4ccc(C(=O)N5CCN(C)CC5)cc4)cc3C1=O)c(C)n2CCO [Compound 619]"
  measured value: 1.58
- compound: "Cc1c(C=C2Oc3cc(O)cc(O)c3C2=O)c2cc(Cl)ccc2n1CCCC#N [Example 238]"
  measured value: 2.56
- compound: "N#Cc1cccc2c1c(C=C1Oc3cc(O)cc(O)c3C1=O)cn2CCN1CCOCC1 [Example 262]"
  measured value: 2.62
- compound: "CCn1c(C)c(/C=C2\\Oc3ccc(NC(=O)Nc4ccc(C(=O)NCCNC)cc4)cc3C2=O)c2cc(OC)ccc21 [Compound 659]"
  measured value: 1.18
- compound: "COc1cc(F)c2[nH]c(-c3c(C)nn(C)c3C)c(/C=C3\\Oc4ccc(NC(=O)NCCN5CCCC5)cc4C3=O)c2c1 [Compound 727]"
  measured value: 1.68
- compound: "O=C1/C(=C/c2c[nH]c3ccc(Cl)cc23)Oc2cc(O)cc(O)c21 [Example 60]"
  measured value: 4.04
- compound: "CNC(=O)Nc1ccc2c(c1)C(=O)/C(=C/c1c(-c3c(C)nn(C)c3C)n(CCN3CCN(C)CC3)c3ccc(OC)cc13)O2 [Compound 646]"
  measured value: 1.11
- compound: "Cc1c(C=C2Oc3cc(O)cc(O)c3C2=O)c2cccc(Br)c2n1C [Example 234]"
  measured value: 4.15
- compound: "COc1ccc2c(c1)c(/C=C1\\Oc3cc(O)ccc3C1=O)cn2CCCN(C)C [Example 324]"
  measured value: 2.56
- compound: "Cn1cc(/C=C2\\Oc3cc(O)cc(O)c3C2=O)c2c(-c3ccc(-c4ccc(CN)cc4)cc3)cccc21 [Example 300]"
  measured value: 2.12
- compound: "CN1CCN(CCn2c(-c3ccccc3)c(C=C3Oc4cc(O)cc(O)c4C3=O)c3ccccc32)CC1 [Example 159]"
  measured value: 3.26
- compound: "COc1ccc2c(c1)c(/C=C1\\Oc3cc(O)ccc3C1=O)c(C)n2CCN1CCCC1 [Example 452]"
  measured value: 3.29
- compound: "CNC(=O)Nc1ccc2c(c1)C(=O)/C(=C/c1c(-c3c(C)nn(C)c3C)[nH]c3ccc(OCCOC)cc13)O2 [Compound 680]"
  measured value: 2.73
- compound: "COc1ccc2c(c1)c(C=C1Oc3cc(O)cc(O)c3C1=O)c(C)n2CCCCN1CCC(N(C)C)C1 (stereo not shown) [Example 99]"
  measured value: 1.86
- compound: "O=C1C(=Cc2c(-c3ccc(Cl)cc3)[nH]c3ccccc23)Oc2cccc(O)c21 [Example 76]"
  measured value: 4.00
- compound: "O=C1C(=Cc2c[nH]c3cccc(OCc4ccccc4)c23)Oc2cc(O)cc(O)c21 [Example 243]"
  measured value: 2.68
